Recorded inhibition values for a group of compounds are listed next.
Target: Single-strand selective monofunctional uracil DNA glycosylase (Homo sapiens) (UniProt Q53HV7);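 further: enzymatic SMUG1 assay coupled with APE1, reading fluorescence at 594 nm released when a quenched double-stranded DNA oligonucleotide substrate is cleaved and separated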
Sequence (whole entry): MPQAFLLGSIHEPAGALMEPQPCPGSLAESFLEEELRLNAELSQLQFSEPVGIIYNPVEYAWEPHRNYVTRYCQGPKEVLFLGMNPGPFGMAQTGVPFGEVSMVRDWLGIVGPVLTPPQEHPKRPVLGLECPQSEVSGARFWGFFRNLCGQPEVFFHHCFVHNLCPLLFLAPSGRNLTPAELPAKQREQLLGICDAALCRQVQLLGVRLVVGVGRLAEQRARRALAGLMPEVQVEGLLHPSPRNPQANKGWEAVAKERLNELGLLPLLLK
Conditions: Compound Concentration 10.0 uM, Hit No
Description: Inhibition of SMUG1 by quantifying inhibition of SMUG1-mediated cleavage and dissociation of quenched duplex DNA oligonucleotides, measured as fluorescence at 594 nm. To generate a functional strand incision and increase turn-over this assay is coupled to APE1.
PARAMETER: inhibition (%)

{"COMPOUND": "CC[C@H]1[C@@H](O)[C@@H]2[C@H](CC[C@]3(C)[C@@H]([C@H](C)CCC(=O)O)CC[C@@H]23)[C@@]2(C)CC[C@@H](O)C[C@@H]12", "PARAMETER": "inhibition", "ENDPOINT_UNIT": "%", "READING": 27.8}
{"COMPOUND": "CC(C)OC(=O)C1=CN(C(=O)c2ccc(F)c(F)c2)CC(C)(C)c2c1[nH]c1ccccc21", "PARAMETER": "inhibition", "ENDPOINT_UNIT": "%", "READING": 27.6}
{"COMPOUND": "Cc1cc(C)c(S(=O)(=O)N(Cc2ccc(-c3cccc(S(C)(=O)=O)c3)cc2)Cc2ccc(C(F)(F)F)o2)c(C)c1", "PARAMETER": "inhibition", "ENDPOINT_UNIT": "%", "READING": 7.91}
{"COMPOUND": "Nc1nc(NCc2ccccc2)nc(-c2ccccc2CO)n1", "PARAMETER": "inhibition", "ENDPOINT_UNIT": "%", "READING": -2.01}
{"COMPOUND": "CC[C@@H]1C(=O)N(C)c2cnc(Nc3ccc(C(=O)NC4CCN(C)CC4)cc3OC)nc2N1C1CCCC1", "PARAMETER": "inhibition", "ENDPOINT_UNIT": "%", "READING": 23.4}
{"COMPOUND": "CN(C(=O)/C=C/c1ccoc1)[C@@H]1CC[C@@]2(O)[C@H]3Cc4ccc(O)c5c4[C@@]2(CCN3CC2CC2)[C@H]1O5", "PARAMETER": "inhibition", "ENDPOINT_UNIT": "%", "READING": -7.79}
{"COMPOUND": "CC(C)(C)c1ccc(NC(=O)N2CCN(c3ncccc3Cl)CC2)cc1", "PARAMETER": "inhibition", "ENDPOINT_UNIT": "%", "READING": -0.579}
{"COMPOUND": "O=C(N1CCS(=O)(=O)CC1)N1C[C@H](c2ccc(OC(F)(F)F)cc2)C[C@H](c2nc(C3CC3)no2)C1", "PARAMETER": "inhibition", "ENDPOINT_UNIT": "%", "READING": 9.87}
{"COMPOUND": "Cc1cc(C)cc(-c2cnc3cc(Cl)c(-c4cccc(O)c4)cc3c2OCCCN)c1", "PARAMETER": "inhibition", "ENDPOINT_UNIT": "%", "READING": 14.7}
{"COMPOUND": "Cc1ccc(-c2ccc3c(ccc4sc5c(c43)NCC(C)NC5=O)n2)cn1 (stereo not drawn)", "PARAMETER": "inhibition", "ENDPOINT_UNIT": "%", "READING": 6.89}
{"COMPOUND": "O=C(Nc1cnc(Oc2ccc(F)cc2)nc1)N1CCc2ncccc2[C@@H]1c1ccc(F)cc1", "PARAMETER": "inhibition", "ENDPOINT_UNIT": "%", "READING": 6.94}
{"COMPOUND": "CN1C[C@@H](NS(=O)(=O)N(C)C)C[C@@H]2c3cccc4c3c(cn4C)C[C@H]21", "PARAMETER": "inhibition", "ENDPOINT_UNIT": "%", "READING": 2.87}
{"COMPOUND": "COc1ccc(Oc2cc(NCCC(F)(F)F)c3ncc(-c4ccc(C(=O)NC5CC5)c(C)c4)n3n2)c(F)c1F", "PARAMETER": "inhibition", "ENDPOINT_UNIT": "%", "READING": 5.15}
{"COMPOUND": "COC(=O)C1=C(C)NC(C)=C(C(=O)OCCCN2CCC(c3ccccc3)(c3ccccc3)CC2)[C@H]1c1cccc([N+](=O)[O-])c1", "PARAMETER": "inhibition", "ENDPOINT_UNIT": "%", "READING": 9.7}
{"COMPOUND": "COc1ccc(OC)c(-c2ccc(NC(=O)c3ccncc3F)cc2)c1", "PARAMETER": "inhibition", "ENDPOINT_UNIT": "%", "READING": 24.3}
{"COMPOUND": "CCCCN1CCC(COC(=O)c2cc(Cl)c(N)c3c2OCCO3)CC1", "PARAMETER": "inhibition", "ENDPOINT_UNIT": "%", "READING": 8.49}
{"COMPOUND": "Cc1ccccc1Oc1cc(-n2c(=O)cc(C(F)(F)F)[nH]c2=O)c2ccccc2c1Cl", "PARAMETER": "inhibition", "ENDPOINT_UNIT": "%", "READING": 29.1}
{"COMPOUND": "c1cc(CN2CCCNCCNCCCNCC2)ccc1CN1CCCNCCNCCCNCC1", "PARAMETER": "inhibition", "ENDPOINT_UNIT": "%", "READING": 1.47}
